Consider the following compounds and their measured zone of inhibition at 30 µg/disc readings.
Test system: Staphylococcus aureus ATCC 29213
Test: Kirby-Bauer disk test, zones of inhibition
Format: cell-based
Conditions: Staphylococcus aureus, ATCC29213; 30 μg/disk; read-out: diameter of zone of inhibition, Staphylococcus aureus ATCC 29213
Recorded metric: zone of inhibition at 30 µg/disc

- Compound: "NCC1OC(OC2C(N)CC(N)C(OC3OC(COC(=O)NCCCCCCCCCCCCNC(=O)OCC4OC(OC5C(N)CC(N)C(OC6OC(CN)C(O)CC6N)C5O)C(O)C(N)C4O)C(O)C(N)C3O)C2O)C(N)CC1O (stereo not shown) [Compound 1]"
  Recorded metric: "zone of inhibition at 30 µg/disc"
  Observed value: "8.9 mm"
- Compound: "NCC1OC(OC2C(N)CC(N)C(OC3OC(CN)C(O)C(N)C3O)C2O)C(N)CC1O (stereo not shown) [Compound 2]"
  Recorded metric: "zone of inhibition at 30 µg/disc"
  Observed value: "18.2 mm"
- Compound: "NCC[C@H](O)C(=O)N[C@@H]1C[C@H](N)[C@@H](O[C@H]2O[C@H](CN)[C@@H](O)[C@H](O)[C@H]2O)[C@H](O)[C@H]1O[C@H]1O[C@H](CO)[C@@H](O)[C@H](N)[C@H]1O [Amikacin, reference compound]"
  Recorded metric: "zone of inhibition at 30 µg/disc"
  Observed value: "18.2 mm"
- Compound: "NCC1OC(OC2C(N)CC(N)C(OC3OC(CNC(=O)Nc4ccc(Cc5ccc(NC(=O)NCC6OC(OC7C(N)CC(N)C(OC8OC(CN)C(O)CC8N)C7O)C(O)C(N)C6O)cc5)cc4)C(O)C(N)C3O)C2O)C(N)CC1O (stereo not shown) [Compound 13]"
  Recorded metric: "zone of inhibition at 30 µg/disc"
  Observed value: "8.6 mm"
- Compound: "NCC1OC(OC2C(N)CC(N)C(OC3OC(COC(=O)Nc4ccc(Cc5ccc(NC(=O)OCC6OC(OC7C(N)CC(N)C(OC8OC(CN)C(O)CC8N)C7O)C(O)C(N)C6O)cc5)cc4)C(O)C(N)C3O)C2O)C(N)CC1O (stereo not shown) [Compound 4]"
  Recorded metric: "zone of inhibition at 30 µg/disc"
  Observed value: "9.3 mm"
- Compound: "NCC1OC(OC2C(N)CC(N)C(OC3OC(CN4CCNCC4)C(O)C(N)C3O)C2O)C(N)CC1O (stereo not shown) [Compound 5]"
  Recorded metric: "zone of inhibition at 30 µg/disc"
  Observed value: "18.6 mm"
- Compound: "NC[C@H]1O[C@H](O[C@H]2[C@H](O)[C@@H](O[C@H]3O[C@H](CO)[C@@H](O)[C@H](N)[C@H]3O)[C@H](N)C[C@@H]2N)[C@H](N)C[C@@H]1O [Tobramycin, reference compound]"
  Recorded metric: "zone of inhibition at 30 µg/disc"
  Observed value: "26.7 mm"
